The values you see were collected from patent US9266904B2.

# TEST METHOD NOTES: Cytotoxicity (CCK-8 cell viability) and selectivity index
# Type: cell-based, human
# COND: human, HepDE19 cells; cytotoxicity, concentration resulting in death of 50% of host cells
READOUT: CC50 at 5 days

| COMPOUND | CC50 at 5 days |
| --- | --- |
| COC(=O)C1=C(CN2C3COCC2CC(O)C3)NC(c2nccs2)=N[C@H]1c1ccc(F)cc1Cl (stereo partly shown) | > 100 µM |

For every item below, please supply its CC50 at 5 days.
1. CCOC(=O)CC1(NS(C)(=O)=O)CC2COCC(C1)N2CC1=C(C(=O)OC)[C@H](c2ccc(F)cc2Cl)N=C(c2nccs2)N1 (stereo partly shown)
2. COC(=O)C1=C(CN2C3COCC2CN(S(C)(=O)=O)C3)NC(c2nccs2)=N[C@H]1c1ccc(F)cc1Cl
3. CCOC(=O)C1=C(CN2[C@@H]3COC[C@H]2C[C@H](CC(=O)O)C3)NC(c2nccs2)=N[C@H]1c1ccccc1Cl
4. COC(=O)C1=C(CN2[C@@H]3CC[C@@]2(C(=O)O)COC3)NC(c2nccs2)=N[C@H]1c1ccc(F)cc1Cl
5. COC(=O)CC1CC2COCC(C1)N2CC1=C(C(=O)OC)[C@H](c2ccc(F)cc2Cl)N=C(c2nccs2)N1 (stereo partly shown)
6. CCOC(=O)C1=C(CN2C3COCC2C(F)(F)[C@H](CC(=O)O)C3)NC(c2nccs2)=N[C@H]1c1ccc(F)c(F)c1C (stereo partly shown)
7. CCOC(=O)CC1(NC(=O)C(F)(F)F)CC2COCC(C1)N2CC1=C(C(=O)OC)[C@H](c2ccc(F)cc2Cl)N=C(c2nccs2)N1 (stereo partly shown)

Result block:
["> 100 µM", "> 100 µM", "> 100 µM", "> 100 µM", "> 100 µM", "35 µM", "> 100 µM"]

// each listed compound needs a value for CC50 at 5 days
1. COC(=O)C1=C(CN2C3COCC2C(F)(F)[C@H](CC(=O)O)C3)NC(c2nccs2)=N[C@H]1c1ccc(F)cc1Cl (stereo partly shown)
2. CCOC(=O)C1=C(CN2[C@@H]3COC[C@H]2C[C@@H](CC(=O)O)C3)NC(c2nccs2)=N[C@H]1c1cccc(F)c1Cl
3. COC(=O)C1=C(CN2C3COCC2CN(S(N)(=O)=O)C3)NC(c2nccs2)=N[C@H]1c1ccc(F)cc1Cl
4. COC(=O)C1=C(CN2[C@@H]3CC[C@@]2(C(=O)O)COC3)NC(c2nccs2)=N[C@H]1c1ccc(F)c(F)c1C

Result block:
1: > 100 µM; 2: 71 µM; 3: 58 µM; 4: > 100 µM

Query block: Please indicate CC50 at 5 days recorded for CCOC(=O)C1=C(CN2[C@@H]3COC[C@H]2C[C@H](NC(C)=O)C3)NC(c2nccs2)=N[C@H]1c1ccc(F)cc1Br
Result block: 44 µM
